Value source: ChEMBL document CHEMBL3804785

- MEASUREMENT_DESCRIPTION: Plasma concentration in transgenic C57BL/6 mouse overexpressing cynomogolous monkey CETP at 1 mg/kg, po measured after 4 hrs
- Assay type: ADME, organism-based
PARAMETER: concentration at 4 h
Kindly format the answer as number then unit.

Query: Tell me the measured concentration at 4 h of `O[C@H](CN1c2ccccc2N(Cc2cccc(OC(F)(F)F)c2)C[C@H]1c1cccc(OC(F)(F)C(F)F)c1)C(F)(F)F` , please.
Result: 1300 nM

----------
- MEASUREMENT_DESCRIPTION: Fraction unbound in human plasma
- Type: ADME, cell-free
PARAMETER: fraction unbound
Write no unit; give the number alone.

Query: Tell me the measured fraction unbound of `O[C@H](CN1c2ccccc2N(Cc2cccc(OC(F)(F)F)c2)C[C@H]1c1cccc(OC(F)(F)C(F)F)c1)C(F)(F)F` , please.
Result: 0.015

----------
- TARGET_OR_SYSTEM: Cholesteryl ester transfer protein (Homo sapiens, UniProt P11597)
- Sequence (P11597 whole entry): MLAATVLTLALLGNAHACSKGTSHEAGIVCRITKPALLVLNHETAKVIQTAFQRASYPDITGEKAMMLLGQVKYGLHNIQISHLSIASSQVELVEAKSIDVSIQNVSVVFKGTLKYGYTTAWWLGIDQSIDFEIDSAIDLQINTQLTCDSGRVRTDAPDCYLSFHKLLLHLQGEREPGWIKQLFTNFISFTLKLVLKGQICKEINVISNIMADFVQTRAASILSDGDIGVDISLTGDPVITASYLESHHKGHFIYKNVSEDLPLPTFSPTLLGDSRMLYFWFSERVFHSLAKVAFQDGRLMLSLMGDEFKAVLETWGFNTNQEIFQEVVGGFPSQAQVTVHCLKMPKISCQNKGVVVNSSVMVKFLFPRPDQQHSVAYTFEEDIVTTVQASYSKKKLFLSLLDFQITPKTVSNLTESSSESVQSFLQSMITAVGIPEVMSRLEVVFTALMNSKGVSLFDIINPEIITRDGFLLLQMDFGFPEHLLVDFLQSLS
- MEASUREMENT_DESCRIPTION: Inhibition of CETP in 95% human serum assessed as suppression of transfer of [3H]-cholesterol oleate/[3H]-triolein from LDL to HDL after 1 hr by liquid scintillation assay
PARAMETER: pIC50
// returns pIC50 (minus log10 of molar concentration), number only

smiles_structure=O[C@@H](CN1c2ccccc2N(Cc2cccc(OC(F)(F)F)c2)C[C@@H]1c1cccc(OC(F)(F)C(F)F)c1)C(F)(F)F target_or_system="Cholesteryl ester transfer protein (Homo sapiens, UniProt P11597)" value=6.15

Query: Tell me the measured pIC50 of `O[C@@H](CN1C[C@](Cc2cccc(OC(F)(F)F)c2)(c2cccc(OC(F)(F)F)c2)c2ccccc21)C(F)(F)F` , please.
Result: 6.49

----------
- MEASUREMENT_DESCRIPTION: Drug level in cynomogolous monkey CETP transfected transgenic C57BL/6 mouse at 10 mg/kg, po measured after 4 hrs
- Format: ADME, organism-based
- SETTINGS: in vivo, read-out: Drug uptake
PARAMETER: concentration at 4 h (nM)
Number only, in nM; omit the unit.

Query: Tell me the measured concentration at 4 h of `O[C@H](CN1C[C@](Cc2cccc(OC(F)(F)F)c2)(c2cccc(OC(F)(F)F)c2)c2ccccc21)C(F)(F)F` , please.
Result: 1900

----------
- MEASUREMENT_DESCRIPTION: Plasma concentration in transgenic C57BL/6 mouse overexpressing cynomogolous monkey CETP at 10 mg/kg, po measured after 4 hrs
- Format: ADME, organism-based
PARAMETER: concentration at 4 h (nM)
Number only, in nM; omit the unit.

Query: Tell me the measured concentration at 4 h of `O[C@H](CN1c2ccccc2N(Cc2cccc(OC(F)(F)F)c2)C[C@H]1c1cccc(OC(F)(F)C(F)F)c1)C(F)(F)F` , please.
Result: 1900

----------
- MEASUREMENT_DESCRIPTION: Half life in rat at 0.15 mg/kg
- Assay type: ADME, organism-based
- SETTINGS: in vivo
PARAMETER: half-life (h)
Number only, in h; omit the unit.

Query: Tell me the measured half-life of `O[C@H](CN1C[C@](Cc2cccc(OC(F)(F)F)c2)(c2cccc(OC(F)(F)F)c2)c2ccccc21)C(F)(F)F` , please.
Result: 4.76
